Item-by-item account of Inhibition
Tested on: Cryptococcus neoformans
MEASUREMENT_SETUP: Concentration 32 ug.mL-1; ASSAY_TEST Inhibition of Fungal Growth; detection method Resazurin; Absorption (OD600-OD570); plate type 384well; NBS; CORNING #3640
Description: Antifungal activity against Cryptococcus neoformans H99 ATCC 208821 (CO-ADD:FG_002); MIC in YNB media using NBS plates, by Resazurin OD(600-570)
Entries with a potency or affinity are not part of this list.
State just the number; it will be interpreted in %.

CC(C)(CO)[C@H](O)C(=O)NCCC(=O)NCc1cn(C[C@H]2O[C@@H](n3ccc(N)nc3=O)[C@H](O)[C@@H]2O)nn1 = -1.6

Entry CCCCCCCNC(=O)CCNC(=O)C(O)C(C)(C)C (stereo unspecified) : reported Inhibition = ? 0.36

Find the recorded Inhibition belonging to CC(C)(C)C(O)C(=O)NCCC(=O)NCCc1ccccc1 (stereo unspecified) and report it. -0.45

Reference source for all entries: ChEMBL document CHEMBL4513148
